We begin with a simple list: items and their reported Limit of Detection.
# TESTED_SYSTEM: RhlR (Pseudomonas aeruginosa)
# Construct: expressed in transfected cells; host or cells: Escherichia coli JM109 transformed with plasmid pSB406
# METHOD_SUMMARY: Whole-cell sensing system harboring plasmid pSB406 (rhlR, PrhlI::luxCDABE) in E. coli JM109, bioluminescence
# Type: cell-based
# RUN_CONDITIONS: pSB406; concentration giving signal >= blank average plus three standard deviations

| COMPOUND | SIGN | Limit of Detection, nM |
| --- | --- | --- |
| CCCCCCCC(=O)NC1CCOC1=O (centres unmarked) [C8-HSL, N-octanoyl homoserine lactone] | = | 1 |
| CCCCCCCCCCCC(=O)NC1CCOC1=O (centres unmarked) [C12-HSL, N-dodecanoyl homoserine lactone] | = | 10 |
| CCCCCC(=O)NC1CCOC1=O (centres unmarked) [C6-HSL, N-hexanoyl homoserine lactone] | = | 1 |
| CCCC(=O)NC1CCOC1=O (centres unmarked) [C4-HSL, N-butyryl homoserine lactone] | = | 1 |
| CCCCCCCCCCCCCC(=O)NC1CCOC1=O (centres unmarked) [C14-HSL, N-tetradecanoyl homoserine lactone] | > | 10000 |

---

# TESTED_SYSTEM: RhlR (Pseudomonas aeruginosa, UniProt P54292)
# Construct: expressed in transfected cells; host or cells: Escherichia coli JM109 transformed with plasmid pSB406
# Sequence (P54292 whole entry): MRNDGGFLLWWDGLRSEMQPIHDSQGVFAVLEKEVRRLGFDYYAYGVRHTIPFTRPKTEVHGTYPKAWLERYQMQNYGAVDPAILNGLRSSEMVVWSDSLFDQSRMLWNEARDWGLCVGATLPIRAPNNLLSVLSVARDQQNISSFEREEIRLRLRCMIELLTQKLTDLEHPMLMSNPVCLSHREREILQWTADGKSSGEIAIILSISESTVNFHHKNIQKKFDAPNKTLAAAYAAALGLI
# METHOD_SUMMARY: Whole-cell sensing system harboring plasmid pSB406 (rhlR, PrhlI::luxCDABE) in E. coli JM109, bioluminescence
# Type: cell-based
# RUN_CONDITIONS: pSB406 sensing cells, 2 h incubation at 37° C., racemic AHL; average ± one standard deviation
PARAMETER_MEASURED: Signal Intensity at 1 × 10^−4 M

| COMPOUND | MEAS_VALUE |
| --- | --- |
| CCCCCCCCCCCC(=O)NC1CCOC1=O (centres unmarked) [C12-HSL, N-dodecanoyl homoserine lactone] | 8.40 ± 0.55 ×10^5, RLU |
| CCCCCCCC(=O)NC1CCOC1=O (centres unmarked) [C8-HSL, N-octanoyl homoserine lactone] | 6.87 ± 0.23 ×10^5, RLU |
| CCCC(=O)NC1CCOC1=O (centres unmarked) [C4-HSL, N-butyryl homoserine lactone] | 19.99 ± 0.00 ×10^5, RLU |
| CCCCCC(=O)NC1CCOC1=O (centres unmarked) [C6-HSL, N-hexanoyl homoserine lactone] | 19.64 ± 0.25 ×10^5, RLU |
| CCCCCCCCCCCCCC(=O)NC1CCOC1=O (centres unmarked) [C14-HSL, N-tetradecanoyl homoserine lactone] | 4.22 ± 0.22 ×10^5, RLU |

---

We begin with a simple list: items and their reported Signal Intensity at 1 × 10^−4 M.
# TESTED_SYSTEM: LasR (Pseudomonas aeruginosa)
# Construct: expressed in transfected cells; host or cells: Escherichia coli JM109 transformed with plasmid pSB1075
# Sequence (P25084 whole entry): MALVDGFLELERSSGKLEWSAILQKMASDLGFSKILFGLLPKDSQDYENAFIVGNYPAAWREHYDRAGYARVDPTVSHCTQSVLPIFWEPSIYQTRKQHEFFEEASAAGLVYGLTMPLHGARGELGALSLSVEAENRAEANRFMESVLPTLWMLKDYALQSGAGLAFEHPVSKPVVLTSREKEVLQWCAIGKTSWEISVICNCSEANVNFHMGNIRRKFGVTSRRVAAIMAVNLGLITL
# METHOD_SUMMARY: Whole-cell sensing system harboring plasmid pSB1075 (lasR, PlasI::luxCDABE) in E. coli JM109, bioluminescence
# Assay type: cell-based
# RUN_CONDITIONS: pSB1075 sensing cells, 2 h incubation at 37° C., racemic AHL; average ± one standard deviation (n = 3)
# Description: The bacterial strain Escherichia coli JM109 was purchased from Stratagene (Cedar Creek, Tex.). Plasmids pSB406 and pSB1075 were transformed respectively into competent E. coli JM109 cells using the standard protocol provided by the manufacturer. The transformed cells were grown at 37° C. overnight on LB agar plates containing 50 μg/mL ampicillin. Cells from a single colony were grown overnight at 37° C., 250 rpm in LB broth containing the same amount (w/v) of ampicillin. […]
PARAMETER_MEASURED: Signal Intensity at 1 × 10^−4 M

| MOLECULE | MEAS_VALUE |
| --- | --- |
| CCCCCCCC(=O)NC1CCOC1=O (centres unmarked) [C8-HSL, N-octanoyl homoserine lactone] | 7.94 ± 0.70 ×10^5, RLU |
| CCCCCC(=O)NC1CCOC1=O (centres unmarked) [C6-HSL, N-hexanoyl homoserine lactone] | 2.53 ± 1.15 ×10^5, RLU |
| CCCCCCCCCCCC(=O)NC1CCOC1=O (centres unmarked) [C12-HSL, N-dodecanoyl homoserine lactone] | 8.99 ± 0.17 ×10^5, RLU |
| CCCC(=O)NC1CCOC1=O (centres unmarked) [C4-HSL, N-butyryl homoserine lactone] | 1.87 ± 0.06 ×10^5, RLU |
| CCCCCCCCCCCCCC(=O)NC1CCOC1=O (centres unmarked) [C14-HSL, N-tetradecanoyl homoserine lactone] | 11.74 ± 0.09 ×10^5, RLU |

---

# TESTED_SYSTEM: LasR (Pseudomonas aeruginosa)
# Construct: expressed in transfected cells; host or cells: Escherichia coli JM109 transformed with plasmid pSB1075
# METHOD_SUMMARY: Whole-cell sensing system harboring plasmid pSB1075 (lasR, PlasI::luxCDABE) in E. coli JM109, bioluminescence
# Format: cell-based
# RUN_CONDITIONS: pSB1075

| COMPOUND | TESTED_SYSTEM | Dynamic Range |
| --- | --- | --- |
| CCCC(=O)NC1CCOC1=O (stereo not shown) | LasR (Pseudomonas aeruginosa) | 100 to 100000 nM |
| CCCCCCCC(=O)NC1CCOC1=O (stereo not shown) | LasR (Pseudomonas aeruginosa) | 10000 to 100000 nM |
| CCCCCCCCCCCCCC(=O)NC1CCOC1=O (stereo not shown) | LasR (Pseudomonas aeruginosa) | 1 to 100000 nM |
| CCCCCCCCCCCC(=O)NC1CCOC1=O (stereo not shown) | LasR (Pseudomonas aeruginosa) | 1 to 10000 nM |

---

# TESTED_SYSTEM: LasR (Pseudomonas aeruginosa)
# Construct: expressed in transfected cells; host or cells: Escherichia coli JM109 transformed with plasmid pSB1075
# METHOD_SUMMARY: Whole-cell sensing system harboring plasmid pSB1075 (lasR, PlasI::luxCDABE) in E. coli JM109, bioluminescence
# Type: cell-based
# RUN_CONDITIONS: pSB1075; concentration giving signal >= blank average plus three standard deviations
We begin with a simple list: items and their reported Limit of Detection.

| MOLECULE | Limit of Detection |
| --- | --- |
| CCCCCCCCCCCC(=O)NC1CCOC1=O (centres unmarked) | 1 nM |
| CCCC(=O)NC1CCOC1=O (centres unmarked) | 100 nM |
| CCCCCCCC(=O)NC1CCOC1=O (centres unmarked) | 10000 nM |
| CCCCCCCCCCCCCC(=O)NC1CCOC1=O (centres unmarked) | 1 nM |
| CCCCCC(=O)NC1CCOC1=O (centres unmarked) | >100000 nM |

---

# TESTED_SYSTEM: RhlR (Pseudomonas aeruginosa, UniProt P54292)
# Construct: expressed in transfected cells; host or cells: Escherichia coli JM109 transformed with plasmid pSB406
# METHOD_SUMMARY: Whole-cell sensing system harboring plasmid pSB406 (rhlR, PrhlI::luxCDABE) in E. coli JM109, bioluminescence
# Assay type: cell-based
# RUN_CONDITIONS: pSB406
# Method: The bacterial strain Escherichia coli JM109 was purchased from Stratagene (Cedar Creek, Tex.). Plasmids pSB406 and pSB1075 were transformed respectively into competent E. coli JM109 cells using the standard protocol provided by the manufacturer. The transformed cells were grown at 37° C. overnight on LB agar plates containing 50 μg/mL ampicillin. Cells from a single colony were grown overnight at 37° C., 250 rpm in LB broth containing the same amount (w/v) of ampicillin. […]
PARAMETER_MEASURED: Dynamic Range

| COMPOUND | PARAMETER_MEASURED | MEAS_VALUE |
| --- | --- | --- |
| CCCCCCCC(=O)NC1CCOC1=O (stereo not shown) | Dynamic Range | 1 to 100000 nM |
| CCCCCCCCCCCC(=O)NC1CCOC1=O (stereo not shown) | Dynamic Range | 10 to 10000 nM |
| CCCCCC(=O)NC1CCOC1=O (stereo not shown) | Dynamic Range | 1 to 100000 nM |
| CCCC(=O)NC1CCOC1=O (stereo not shown) | Dynamic Range | 1 to 100000 nM |
